target: F508delCFTR (Homo sapiens, UniProt P13569, DEL508-508); construct: expressed in transfected cells; host or cells: CFBE41o- (human lung derived epithelial cell line), doxycycline-inducible expression; test: Cell Surface Expression-Horse Radish Peroxidase (CSE-HRP) assay; assay type: cell-based; conditions: CFBE41o-F508delCFTR-HRP cells; without co-corrector; normalized to on-plate positive control; highest concentration 20 μM;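 for Maximum % activity (without co-corrector): % of on-plate positive control (2 µM of the co-corrector compound) after DMSO subtraction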
Sequence (P13569 with tags, fused parts or gaps DEL508-508): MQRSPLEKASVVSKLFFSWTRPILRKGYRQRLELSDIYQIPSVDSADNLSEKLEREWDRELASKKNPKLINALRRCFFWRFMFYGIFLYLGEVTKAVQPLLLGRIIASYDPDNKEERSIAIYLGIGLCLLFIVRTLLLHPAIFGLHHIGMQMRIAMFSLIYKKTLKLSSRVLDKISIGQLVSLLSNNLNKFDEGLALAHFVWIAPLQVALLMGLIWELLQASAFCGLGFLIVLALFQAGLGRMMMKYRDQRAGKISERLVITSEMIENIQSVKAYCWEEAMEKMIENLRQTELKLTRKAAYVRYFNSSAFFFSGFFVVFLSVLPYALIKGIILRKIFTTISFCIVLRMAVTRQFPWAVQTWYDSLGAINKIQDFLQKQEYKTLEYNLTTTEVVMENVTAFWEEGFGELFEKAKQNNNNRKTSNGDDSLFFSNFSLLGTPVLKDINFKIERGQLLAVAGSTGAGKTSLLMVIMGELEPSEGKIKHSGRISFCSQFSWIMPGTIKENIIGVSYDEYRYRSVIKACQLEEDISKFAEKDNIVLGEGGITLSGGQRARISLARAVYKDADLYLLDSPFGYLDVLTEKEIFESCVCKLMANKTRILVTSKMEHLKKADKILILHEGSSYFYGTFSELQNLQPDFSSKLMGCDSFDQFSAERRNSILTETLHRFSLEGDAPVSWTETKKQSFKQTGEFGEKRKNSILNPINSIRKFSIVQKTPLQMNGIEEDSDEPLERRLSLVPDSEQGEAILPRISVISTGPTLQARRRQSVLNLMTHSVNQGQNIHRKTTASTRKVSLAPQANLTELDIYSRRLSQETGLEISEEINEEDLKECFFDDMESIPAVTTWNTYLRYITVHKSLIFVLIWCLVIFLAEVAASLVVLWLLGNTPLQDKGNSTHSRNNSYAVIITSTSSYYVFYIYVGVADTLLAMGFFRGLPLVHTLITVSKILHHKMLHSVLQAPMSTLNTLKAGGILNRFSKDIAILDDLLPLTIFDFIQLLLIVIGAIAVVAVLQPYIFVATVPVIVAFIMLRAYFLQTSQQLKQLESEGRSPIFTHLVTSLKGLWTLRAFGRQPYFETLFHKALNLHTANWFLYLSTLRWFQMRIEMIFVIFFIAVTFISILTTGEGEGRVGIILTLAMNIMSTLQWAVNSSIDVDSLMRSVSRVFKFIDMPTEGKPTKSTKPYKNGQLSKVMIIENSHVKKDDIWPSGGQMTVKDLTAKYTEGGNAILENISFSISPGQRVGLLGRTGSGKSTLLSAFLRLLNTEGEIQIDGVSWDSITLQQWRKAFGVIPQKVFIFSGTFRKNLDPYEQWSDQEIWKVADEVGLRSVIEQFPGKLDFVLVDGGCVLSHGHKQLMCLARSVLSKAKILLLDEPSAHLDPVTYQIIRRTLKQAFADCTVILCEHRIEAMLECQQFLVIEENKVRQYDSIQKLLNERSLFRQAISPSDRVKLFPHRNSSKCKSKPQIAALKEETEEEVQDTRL
OBSERVED_PROPERTY: Maximum % activity (without co-corrector)

Past entries and their recorded results:
COc1ncc(C(F)(F)F)cc1CO[C@H]1[C@H](C(C)(C)C)[C@@H](C(=O)O)N(C(=O)[C@@H]2CCCO2)[C@H]1c1ccccc1C1CC1 [Example 112]
++ (≥100 and <200)
CCc1ccccc1[C@H]1[C@@H](OCC#Cc2cc(C(F)(F)F)cnc2OC)[C@H](C(C)(C)C)[C@@H](C(=O)O)N1C(=O)[C@@H]1CCCCO1 [Example 278]
++ (≥100 and <200)
COc1ncc(C2CCC2)cc1CO[C@H]1[C@H](C(C)(C)C)[C@@H](C(=O)O)N(C(=O)[C@H]2CCCCO2)[C@H]1c1cccnc1OC(C)C [Example 135]
++ (≥100 and <200)
COc1ncc(C(F)(F)F)cc1CO[C@@H]1[C@H](C(C)(C)C)[C@@H](C(=O)O)N(C(=O)[C@@H]2CCCO2)[C@H]1c1cccc(C(C)(C)C)c1 [Example 122]
+ (<100)

// sample COc1ncc(C2CCC2)cc1CO[C@H]1[C@H](C(C)(C)C)[C@@H](C(=O)O)N(C(=O)[C@@H]2CCCCO2)[C@H]1c1cccnc1OC(C)C [Example 136] , its Maximum % activity (without co-corrector) was ++ (≥100 and <200)

// sample COc1ncc(C(F)(F)F)cc1CO[C@H]1[C@H](C(C)(C)C)[C@@H](C(=O)O)N(C(=O)[C@@H]2CCCO2)[C@H]1c1cccc(C2CC2)c1 [Example 120] , its Maximum % activity (without co-corrector) was + (<100)

====

The entries below come with measured pEC50 values attached.
target: F508delCFTR (Homo sapiens, UniProt P13569, DEL508-508); construct: expressed in transfected cells; host or cells: CFBE41o- (human lung derived epithelial cell line), doxycycline-inducible expression; test: Cell Surface Expression-Horse Radish Peroxidase (CSE-HRP) assay; type: cell-based; details: CFBE41o-F508delCFTR-HRP cells; with co-corrector (2 μM of 3-[(2R,4R)-4-({[1-(2,2-difluoro-1,3-benzodioxol-5-yl)cyclopropyl]carbonyl}amino)-7-methoxy-3,4-dihydro-2H-chromen-2-yl]benzoic acid); read-out: EC50 (with co-corrector)
pEC50: −log10 of the molar value.

COc1ncc(N2CCCCC2)cc1CO[C@H]1[C@H](C(C)(C)C)[C@@H](C(=O)O)N(C(=O)OC(C)C)[C@H]1c1ccccc1 [Example 81]
5.00 to 6.00

Tested system F508delCFTR (Homo sapiens, UniProt P13569, DEL508-508); pEC50 recorded for COc1ncc(Br)cc1CO[C@H]1[C@H](C(C)(C)C)[C@@H](C(=O)O)N(C(=O)C2CCCCC2)[C@H]1c1ccccc1F [Example 51] was 5.00 to 6.00

Tested system F508delCFTR (Homo sapiens, UniProt P13569, DEL508-508); pEC50 recorded for COCCS(=O)(=O)NC(=O)[C@@H]1[C@@H](C(C)(C)C)[C@H](OCc2cc(C(F)(F)F)ccc2OC)[C@H](c2ccccc2)N1C(=O)C1CCCCC1 [Example 21] was 5.00 to 6.00

Tested system F508delCFTR (Homo sapiens, UniProt P13569, DEL508-508); pEC50 recorded for COc1ccc(C(F)(F)F)cc1[C@H](C)CO[C@H]1[C@H](C(C)(C)C)[C@@H](C(=O)O)N(C(=O)[C@@H]2CCCCO2)[C@H]1c1ccccc1C [Example 273] was > 6.00

Tested system F508delCFTR (Homo sapiens, UniProt P13569, DEL508-508); pEC50 recorded for COc1ncc(C2CCC2)cc1CO[C@H]1[C@H](C(C)(C)C)[C@@H](C(=O)O)N(C(=O)[C@@H]2CCCO2)[C@H]1c1ccccc1C(F)(F)F [Example 155] was > 6.00

Tested system F508delCFTR (Homo sapiens, UniProt P13569, DEL508-508); pEC50 recorded for COc1ncc(C2CCC2)cc1CO[C@H]1[C@H](C(C)(C)C)[C@@H](C(=O)O)N(C(=O)OC(C)C)[C@H]1c1ccccc1C1CC1 [Example 168] was 5.00 to 6.00

====

The entries below come with measured EC50 values attached.
molecular target: F508delCFTR (Homo sapiens, UniProt P13569, DEL508-508); construct: expressed in transfected cells; host or cells: CFBE41o- (human lung derived epithelial cell line), doxycycline-inducible expression; experiment: Cell Surface Expression-Horse Radish Peroxidase (CSE-HRP) assay; format: cell-based; settings: CFBE41o-F508delCFTR-HRP cells; with co-corrector (2 μM of 3-[(2R,4R)-4-({[1-(2,2-difluoro-1,3-benzodioxol-5-yl)cyclopropyl]carbonyl}amino)-7-methoxy-3,4-dihydro-2H-chromen-2-yl]benzoic acid); read-out: EC50 (with co-corrector)

Past entries and their recorded results:
COc1nc2ccccc2cc1CO[C@H]1[C@H](C(C)(C)C)[C@@H](C(=O)O)N(C(=O)[C@@H]2CCCO2)[C@H]1c1ccccc1C1CC1
< 1000 nM
COc1ncc(C(F)(F)F)cc1CO[C@H]1[C@H](C(C)(C)C)[C@@H](C(=O)O)N(C(=O)[C@@H]2CCCCO2)[C@H]1c1ccccc1-c1cccc(N(C)C)c1
< 1000 nM
COc1ccc(C(F)(F)F)cc1CO[C@H]1[C@H](C(C)(C)C)[C@@H](C(=O)NS(=O)(=O)C2CC2)N(C(=O)C2CCCCC2)[C@H]1c1ccccc1
1000 to 10000 nM

// sample "COc1ncc(C(F)(F)F)cc1CO[C@H]1[C@H](C(C)(C)C)[C@@H](C(=O)O)N(C(=O)[C@@H]2CCCCO2)[C@H]1c1ccccc1-c1ccc(OC(F)(F)F)cc1" , its EC50 was 1000 to 10000 nM

// sample "COc1ncc(C2CCCC2)cc1CO[C@H]1[C@H](C(C)(C)C)[C@@H](C(=O)O)N(C(=O)C2CCCCC2)[C@H]1c1ccccc1F" , its EC50 was 1000 to 10000 nM

// sample "C=C(CO[C@H]1[C@H](C(C)(C)C)[C@@H](C(=O)O)N(C(=O)[C@@H]2CCCCO2)[C@H]1c1ccccc1C)c1cc(C(F)(F)F)ccc1OC" , its EC50 was < 1000 nM

====

target: F508delCFTR (Homo sapiens, UniProt P13569, DEL508-508); construct: expressed in transfected cells; host or cells: CFBE41o- (human lung derived epithelial cell line), doxycycline-inducible expression; experiment: Cell Surface Expression-Horse Radish Peroxidase (CSE-HRP) assay; format: cell-based; details: CFBE41o-F508delCFTR-HRP cells; without co-corrector; normalized to on-plate positive control; highest concentration 20 μM;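 for Maximum % activity (without co-corrector): % of on-plate positive control (2 µM of the co-corrector compound) after DMSO subtraction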
OBSERVED_PROPERTY: Maximum % activity (without co-corrector)

Past entries and their recorded results:
CCOc1cncc(-c2ccccc2[C@H]2[C@@H](OCc3cc(C(F)(F)F)cnc3OC)[C@H](C(C)(C)C)[C@@H](C(=O)O)N2C(=O)[C@@H]2CCCCO2)c1
++ (≥100 and <200)
COc1ncc(C(F)(F)F)cc1CO[C@H]1[C@H](C(C)(C)C)[C@@H](C(=O)O)N(C(=O)OC(C)C)[C@H]1c1cccc(Br)c1
+ (<100)
COc1ccc(C(F)(F)F)cc1CO[C@@H]1[C@H](C(C)(C)C)[C@@H](C(=O)O)N(C(=O)[C@@H]2CCCO2)[C@H]1c1cccnc1C(F)(F)F
+ (<100)
COc1ncc(-c2ccc(C)cc2F)cc1CO[C@H]1[C@H](C(C)(C)C)[C@@H](C(=O)O)N(C(=O)OC(C)C)[C@H]1c1ccccc1
+ (<100)
COc1ncc(C(F)(F)F)cc1CO[C@H]1[C@H](C(C)(C)C)[C@@H](C(=O)O)N(C(=O)[C@H]2CCOC2)[C@H]1c1ccccc1C(C)C
+ (<100)

Moving on to the next compound.
Tested system F508delCFTR (Homo sapiens, UniProt P13569, DEL508-508); Maximum % activity (without co-corrector) recorded for "COc1ncc(C(F)(F)F)cc1CO[C@H]1[C@H](C(C)(C)C)[C@@H](C(=O)O)N(C(=O)[C@@H]2CCCCO2)[C@H]1c1ccccc1-c1ccncc1" was ++ (≥100 and <200)

====

Molecular target: F508delCFTR (Homo sapiens, UniProt P13569, DEL508-508)
Construct: expressed in transfected cells; host or cells: CFBE41o- (human lung derived epithelial cell line), doxycycline-inducible expression
Assay: Cell Surface Expression-Horse Radish Peroxidase (CSE-HRP) assay
Format: cell-based
Conditions: CFBE41o-F508delCFTR-HRP cells; with co-corrector (2 μM of 3-[(2R,4R)-4-({[1-(2,2-difluoro-1,3-benzodioxol-5-yl)cyclopropyl]carbonyl}amino)-7-methoxy-3,4-dihydro-2H-chromen-2-yl]benzoic acid); read-out: EC50 (with co-corrector)
From the text: Cell Surface Expression-Horse Radish Peroxidase (CSE-HRP) Assay […] The maximum % activity achieved for the test compound either without or with a co-corrector at any tested concentration is presented in Table 1 along with the respective EC50's calculated using the following general sigmoidal curve with variable Hill slope equation (described as Model 42 in the Accelrys® Assay Explorer v3.3 software): y=(a−d)/(1+(x/c)^b)+d […]
OBSERVED_PROPERTY: EC50

// sample "CCc1ccccc1[C@H]1[C@@H](OCc2cc(C(F)(F)F)cnc2OC)[C@H](C(C)(C)C)[C@@H](C(=O)O)N1C(=O)[C@@H]1CCCCO1" , its EC50 was < 1000 nM

// sample "COc1ccc(C(F)(F)F)cc1CO[C@@H]1[C@@H](C(C)(C)C)[C@H](C(=O)O)N(C(=O)[C@H]2CCC[C@H](OC)C2)[C@@H]1c1ccccc1" , its EC50 was < 1000 nM

// sample "CCc1ccccc1[C@H]1[C@@H](OCc2cc(C3CCC3)cnc2OC)[C@H](C(C)(C)C)[C@@H](C(=O)O)N1C(=O)[C@@H]1CCCCO1" , its EC50 was < 1000 nM

// sample "COc1ncc(C(F)(F)F)cc1CO[C@H]1[C@H](C(C)(C)C)[C@@H](C(=O)O)N(C(=O)OC(C)C)[C@H]1c1ccccc1C1=CCOCC1" , its EC50 was 1000 to 10000 nM

// sample COc1ccc(C(F)(F)F)cc1CO[C@H]1[C@H](C(C)(C)C)[C@@H](C(=O)O)N(C(=O)N(C(C)C)C(C)C)[C@H]1c1ccccc1 (single isomer, unassigned) , its EC50 was > 10000 nM

// sample "COc1ncc(C(F)(F)F)cc1CO[C@H]1[C@H](C(C)(C)C)[C@@H](C(=O)O)N(C(=O)[C@@H]2CCCCO2)[C@H]1c1ccccc1-c1ccc2c(c1)OCO2" , its EC50 was 1000 to 10000 nM

// sample "COc1ccc(C(F)(F)F)cc1CO[C@H]1[C@H](C(C)(C)C)[C@@H](C(=O)NS(=O)(=O)C2(C)CC2)N(C(=O)C2CCCCC2)[C@H]1c1ccccc1" , its EC50 was > 10000 nM
